The measured values listed here are drawn from patent US11236078B2.

# measured on: human Nav1.7 (hNav1.7) (Homo sapiens)
# Construct: expressed in transfected cells
# test: hNav1.7 slow inactivation block, automated patchclamp
# Type: cell-based
# cond: HEK 293F cells stably expressing hNav1.7, slow inactivation induced in approximately 50% of channels
measured quantity: IC50

1) COc1cc(Oc2cc(F)c(S(=O)(=O)Nc3nc(Cc4ccccc4)ns3)cc2F)cc(C(F)(F)F)c1 : > 32000 nM
2) O=C(NCc1cccc(-c2cc(C(F)(F)F)cc(C(F)(F)F)c2)c1)[C@@H]1C[C@H](F)CN1 : 4440 nM
3) O=C(NCc1cc(F)c(Oc2cc(C(F)(F)F)cc(C(F)(F)F)c2)cc1F)c1nncs1 : ~10200 nM

---

# measured on: human Nav1.5 (hNav1.5) (Homo sapiens)
# Construct: expressed in transfected cells
# test: hNav1.5 slow inactivation block, manual patchclamp
# Format: cell-based
# cond: HEK 293F cells stably expressing hNav1.5
Recorded measurements of IC50, one per entry
measured quantity: IC50 (nM)

1. O=C(Cc1cccc(-c2cc(C(F)(F)F)cc(C(F)(F)F)c2)c1)Nc1ncns1 [Compound 21] : 550
2. CCCOc1cc(Oc2cc(F)c(S(=O)(=O)Nc3ncns3)cc2F)cc(C(F)(F)F)c1 [Compound 37] : 7210

---

# measured on: human Nav1.7 (hNav1.7) (Homo sapiens)
# Construct: expressed in transfected cells
# test: hNav1.7 slow inactivation block, manual patchclamp
# Assay type: cell-based
# cond: HEK 293F cells stably expressing hNav1.7, slow inactivation induced in approximately 50% of channels
IC50 under 300 nM gets Criterion met, anything at or over 300 nM gets Criterion not met.

1) O=S(=O)(Nc1ncns1)c1cc(F)c(Oc2cc(C3CNC3)cc(C(F)(F)F)c2)cc1F [Compound 31] : Criterion met
2) O=C(NCc1cc(-c2cc(C(F)(F)F)cc(C(F)(F)F)c2)cc(C(F)(F)F)c1)[C@@H]1C[C@H](F)CN1 [Compound 54] : Criterion not met
3) O=C(NCc1cccc(-c2cc(C(F)(F)F)cc(C(F)(F)F)c2)c1)C1CC[C@H](O)C1 (some centres unmarked) [Example 63] : Criterion not met
4) COc1cc(Oc2cc(F)c(S(=O)(=O)Nc3nc(CN4CCOCC4)ns3)cc2F)cc(C(F)(F)F)c1 [Compound 45] : Criterion not met
5) O=S(=O)(Nc1ncns1)c1cc(F)c(Oc2cc(F)cc(C(F)(F)F)c2)cc1F [Compound 32] : Criterion not met

---

# measured on: human Nav1.7 (hNav1.7) (Homo sapiens, UniProt Q15858)
# Construct: expressed in transfected cells
# Sequence (Q15858 whole entry): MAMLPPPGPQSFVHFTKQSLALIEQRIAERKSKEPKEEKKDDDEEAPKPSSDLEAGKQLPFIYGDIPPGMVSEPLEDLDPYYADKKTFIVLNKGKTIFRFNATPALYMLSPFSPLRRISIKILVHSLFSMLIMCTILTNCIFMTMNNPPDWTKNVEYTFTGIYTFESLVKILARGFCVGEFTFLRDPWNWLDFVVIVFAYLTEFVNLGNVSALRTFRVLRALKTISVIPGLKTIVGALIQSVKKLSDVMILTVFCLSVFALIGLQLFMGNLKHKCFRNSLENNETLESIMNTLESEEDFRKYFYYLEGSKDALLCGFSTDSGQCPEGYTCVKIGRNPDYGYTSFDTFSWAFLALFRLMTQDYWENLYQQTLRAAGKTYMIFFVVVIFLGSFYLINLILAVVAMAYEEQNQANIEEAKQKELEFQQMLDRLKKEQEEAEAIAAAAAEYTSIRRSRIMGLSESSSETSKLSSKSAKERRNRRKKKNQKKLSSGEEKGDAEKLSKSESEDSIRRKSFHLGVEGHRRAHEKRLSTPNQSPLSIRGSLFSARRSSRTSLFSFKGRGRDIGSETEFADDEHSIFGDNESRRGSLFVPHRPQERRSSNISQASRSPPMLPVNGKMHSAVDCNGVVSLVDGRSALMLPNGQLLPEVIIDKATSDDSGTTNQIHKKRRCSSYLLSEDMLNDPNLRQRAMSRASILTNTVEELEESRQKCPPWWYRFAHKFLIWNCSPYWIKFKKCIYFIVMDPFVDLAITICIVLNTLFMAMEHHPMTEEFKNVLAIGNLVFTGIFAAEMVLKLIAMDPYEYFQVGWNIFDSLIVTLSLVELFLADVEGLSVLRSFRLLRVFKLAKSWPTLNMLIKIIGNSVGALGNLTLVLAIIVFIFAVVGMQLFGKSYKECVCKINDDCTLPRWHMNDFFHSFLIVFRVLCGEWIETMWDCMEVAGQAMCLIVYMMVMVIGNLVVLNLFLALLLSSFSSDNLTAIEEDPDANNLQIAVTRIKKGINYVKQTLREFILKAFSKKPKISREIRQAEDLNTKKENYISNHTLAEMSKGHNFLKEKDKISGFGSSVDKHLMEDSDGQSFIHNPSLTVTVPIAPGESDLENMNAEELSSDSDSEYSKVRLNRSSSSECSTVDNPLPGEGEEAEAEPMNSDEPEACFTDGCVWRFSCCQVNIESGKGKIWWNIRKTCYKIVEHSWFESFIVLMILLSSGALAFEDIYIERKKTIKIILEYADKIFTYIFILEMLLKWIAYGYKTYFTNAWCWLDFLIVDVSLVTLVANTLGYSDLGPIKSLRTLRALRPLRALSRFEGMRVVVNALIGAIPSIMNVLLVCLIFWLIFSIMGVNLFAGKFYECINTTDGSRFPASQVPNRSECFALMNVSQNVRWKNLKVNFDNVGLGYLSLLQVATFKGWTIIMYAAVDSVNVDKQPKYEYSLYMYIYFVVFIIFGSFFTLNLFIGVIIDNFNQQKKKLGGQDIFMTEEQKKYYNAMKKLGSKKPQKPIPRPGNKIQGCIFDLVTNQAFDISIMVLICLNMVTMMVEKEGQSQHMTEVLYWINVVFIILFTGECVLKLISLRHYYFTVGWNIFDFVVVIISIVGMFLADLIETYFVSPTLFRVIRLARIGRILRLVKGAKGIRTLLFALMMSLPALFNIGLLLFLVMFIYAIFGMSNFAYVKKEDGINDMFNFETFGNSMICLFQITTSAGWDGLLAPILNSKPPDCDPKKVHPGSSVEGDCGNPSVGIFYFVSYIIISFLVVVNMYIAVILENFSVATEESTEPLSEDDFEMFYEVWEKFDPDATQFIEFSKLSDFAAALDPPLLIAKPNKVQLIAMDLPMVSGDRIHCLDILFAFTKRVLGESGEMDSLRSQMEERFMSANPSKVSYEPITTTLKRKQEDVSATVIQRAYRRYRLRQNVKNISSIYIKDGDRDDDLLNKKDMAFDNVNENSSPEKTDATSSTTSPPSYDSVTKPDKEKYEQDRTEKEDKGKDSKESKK
# Sequence (Q07699 19-218 partner): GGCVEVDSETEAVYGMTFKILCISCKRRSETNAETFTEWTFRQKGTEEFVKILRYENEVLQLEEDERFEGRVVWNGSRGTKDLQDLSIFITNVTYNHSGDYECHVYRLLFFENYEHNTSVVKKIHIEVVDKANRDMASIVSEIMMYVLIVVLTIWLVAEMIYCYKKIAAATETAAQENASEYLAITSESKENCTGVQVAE
# test: hNav1.7 slow inactivation block, automated patchclamp
# Type: cell-based
# cond: HEK 293F cells stably expressing hNav1.7, slow inactivation induced in approximately 50% of channels
measured quantity: IC50

1. N#Cc1cc(S(=O)(=O)Nc2nncs2)ccc1Oc1cc(C(F)(F)F)cc(C(F)(F)F)c1 : > 32000 nM
2. COc1cc(Oc2cc(F)c(S(=O)(=O)Nc3nc(C)ns3)cc2F)cc(C(F)(F)F)c1 : > 32000 nM
3. CCCOc1cc(Oc2cc(F)c(S(=O)(=O)Nc3ncns3)cc2F)cc(C(F)(F)F)c1 : ~17600 nM
4. CCNC(=O)c1cc(Oc2cc(F)c(S(=O)(=O)Nc3ncns3)cc2F)cc(C(F)(F)F)c1 : > 32000 nM
5. O=S(=O)(Nc1ncns1)c1cc(F)c(Oc2cc(C3CNC3)cc(C(F)(F)F)c2)cc1F : 750 nM
6. CN(Cc1cccc(-c2cc(C(F)(F)F)cc(C(F)(F)F)c2)c1)C(=O)[C@@H]1CCCN1 : 2470 nM
7. O=C(NCc1cccc(-c2cc(C(F)(F)F)cc(C(F)(F)F)c2)c1)C1CCCC1 : 712 nM
8. N#Cc1cc(S(=O)(=O)Nc2ncns2)ccc1Oc1cc(C(F)(F)F)cc(C(F)(F)F)c1 : ~49000 nM

---

Recorded measurements of IC50, one per entry
# measured on: human Nav1.5 (hNav1.5) (Homo sapiens, UniProt Q14524)
# Construct: expressed in transfected cells
# Sequence (Q14524 whole entry): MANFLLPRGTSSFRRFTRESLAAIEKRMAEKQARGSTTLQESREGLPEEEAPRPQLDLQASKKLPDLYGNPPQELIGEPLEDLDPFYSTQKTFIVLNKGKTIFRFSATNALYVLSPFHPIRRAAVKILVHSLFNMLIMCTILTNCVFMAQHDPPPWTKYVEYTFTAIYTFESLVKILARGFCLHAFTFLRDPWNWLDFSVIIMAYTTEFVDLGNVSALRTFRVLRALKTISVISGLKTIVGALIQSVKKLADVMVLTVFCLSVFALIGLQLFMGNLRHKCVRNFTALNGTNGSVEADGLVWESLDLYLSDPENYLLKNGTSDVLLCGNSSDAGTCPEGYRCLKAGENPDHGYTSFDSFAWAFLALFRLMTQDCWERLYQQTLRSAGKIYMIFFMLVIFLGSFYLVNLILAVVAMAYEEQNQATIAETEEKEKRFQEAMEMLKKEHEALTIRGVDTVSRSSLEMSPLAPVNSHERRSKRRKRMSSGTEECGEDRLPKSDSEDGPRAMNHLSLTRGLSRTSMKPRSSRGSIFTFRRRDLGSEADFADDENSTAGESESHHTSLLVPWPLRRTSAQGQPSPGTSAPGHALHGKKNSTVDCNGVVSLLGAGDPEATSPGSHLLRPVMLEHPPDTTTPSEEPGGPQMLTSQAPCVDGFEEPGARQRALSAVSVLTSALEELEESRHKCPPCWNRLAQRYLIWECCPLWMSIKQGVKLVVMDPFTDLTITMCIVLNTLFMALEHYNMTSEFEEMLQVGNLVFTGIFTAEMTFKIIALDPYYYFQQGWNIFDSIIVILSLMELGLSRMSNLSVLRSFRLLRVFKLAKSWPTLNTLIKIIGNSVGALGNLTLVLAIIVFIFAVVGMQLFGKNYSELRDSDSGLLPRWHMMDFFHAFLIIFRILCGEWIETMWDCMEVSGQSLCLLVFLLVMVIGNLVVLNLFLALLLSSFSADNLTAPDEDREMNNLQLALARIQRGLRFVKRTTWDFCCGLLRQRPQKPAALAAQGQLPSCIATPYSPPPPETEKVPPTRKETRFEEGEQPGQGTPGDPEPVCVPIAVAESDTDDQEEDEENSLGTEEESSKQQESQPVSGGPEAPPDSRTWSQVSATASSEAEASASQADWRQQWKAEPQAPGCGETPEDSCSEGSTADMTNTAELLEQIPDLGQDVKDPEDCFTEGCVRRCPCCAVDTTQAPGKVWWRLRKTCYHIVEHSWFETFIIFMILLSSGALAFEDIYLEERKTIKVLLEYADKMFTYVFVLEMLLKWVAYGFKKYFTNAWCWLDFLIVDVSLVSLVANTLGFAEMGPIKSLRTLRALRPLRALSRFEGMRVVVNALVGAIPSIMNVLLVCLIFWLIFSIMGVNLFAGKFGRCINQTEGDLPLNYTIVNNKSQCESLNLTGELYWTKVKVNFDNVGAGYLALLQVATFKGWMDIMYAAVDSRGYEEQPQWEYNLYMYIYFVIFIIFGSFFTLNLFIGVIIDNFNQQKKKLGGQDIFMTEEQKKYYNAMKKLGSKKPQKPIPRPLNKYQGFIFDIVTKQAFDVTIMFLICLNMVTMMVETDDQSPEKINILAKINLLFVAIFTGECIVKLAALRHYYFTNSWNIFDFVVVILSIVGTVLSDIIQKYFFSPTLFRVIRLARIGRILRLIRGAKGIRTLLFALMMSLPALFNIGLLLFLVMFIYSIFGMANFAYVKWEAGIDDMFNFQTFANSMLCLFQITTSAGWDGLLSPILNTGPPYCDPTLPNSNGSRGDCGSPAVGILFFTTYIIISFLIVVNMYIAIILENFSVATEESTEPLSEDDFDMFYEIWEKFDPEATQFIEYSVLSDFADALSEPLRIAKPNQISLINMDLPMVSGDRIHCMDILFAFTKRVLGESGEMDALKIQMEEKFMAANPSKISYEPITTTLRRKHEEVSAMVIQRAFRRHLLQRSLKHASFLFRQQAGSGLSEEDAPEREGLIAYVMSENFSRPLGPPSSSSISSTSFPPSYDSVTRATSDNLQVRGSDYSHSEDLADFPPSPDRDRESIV
# test: hNav1.5 slow inactivation block, manual patchclamp
# Assay type: cell-based
# cond: HEK 293F cells stably expressing hNav1.5
measured quantity: IC50 (nM)

1. O=S(=O)(Nc1ncns1)c1cc(F)c(Oc2cc(C(F)(F)F)cc(C(F)(F)F)c2)cc1F [Compound 5] : 16600
2. O=S(=O)(Nc1ncns1)c1cc(F)c(Oc2cc(N3CC(O)C3)cc(C(F)(F)F)c2)cc1F [Compound 49] : 1600
3. O=C(NCc1cc(F)c(Oc2cc(C(F)(F)F)cc(C(F)(F)F)c2)cc1F)[C@@H]1CCCN1 [Compound 4] : 116
4. O=C(NCc1cccc(-c2cc(C(F)(F)F)cc(C(F)(F)F)c2)c1)C1CCCC1 [Compound 56] : 462

---

Recorded measurements of IC50, one per entry
# measured on: human Nav1.5 (hNav1.5) (Homo sapiens, UniProt Q14524)
# Construct: expressed in transfected cells
# test: hNav1.5 slow inactivation block, automated patchclamp
# Type: cell-based
# cond: HEK 293F cells stably expressing hNav1.5
measured quantity: IC50

1. COc1cc(Oc2cc(F)c(S(=O)(=O)Nc3nc(CN4CCOCC4)ns3)cc2F)cc(C(F)(F)F)c1 : > 32000 nM
2. N#Cc1cc(Oc2cc(C(F)(F)F)cc(C(F)(F)F)c2)ccc1S(=O)(=O)Nc1nncs1 : > 32000 nM
3. COc1cc(Oc2cc(F)c(S(=O)(=O)Nc3nc(Cc4ccccc4)ns3)cc2F)cc(C(F)(F)F)c1 : > 32000 nM
4. O=S(=O)(Nc1ncns1)c1cc(F)c(Oc2cc(N3CCC3)cc(C(F)(F)F)c2)cc1F : ~6660 nM
5. COc1cc(Oc2cc(F)c(S(=O)(=O)Nc3nc(C)ns3)cc2F)cc(C(F)(F)F)c1 : > 32000 nM
6. O=C(NCc1cccc(-c2cc(C(F)(F)F)cc(C(F)(F)F)c2)c1)[C@@H]1C[C@H](F)CN1 : 4050 nM
7. O=S(=O)(Nc1ncns1)c1cc(F)c(Oc2cc(N3CC(O)C3)cc(C(F)(F)F)c2)cc1F : ~17200 nM

---

# measured on: human Nav1.7 (hNav1.7) (Homo sapiens, UniProt Q15858)
# Construct: expressed in transfected cells
# test: hNav1.7 slow inactivation block, manual patchclamp
# Assay type: cell-based
# cond: HEK 293F cells stably expressing hNav1.7, slow inactivation induced in approximately 50% of channels
measured quantity: log10 IC50 (log10 of the value in nM)

1) CCOC(=O)c1cc(Oc2cc(F)c(S(=O)(=O)Nc3ncns3)cc2F)cc(C(F)(F)F)c1 : 3.33
2) N#Cc1cc(Oc2cc(F)c(S(=O)(=O)Nc3ncns3)cc2F)cc(C(F)(F)F)c1 : 3.34
3) CN(c1ncns1)S(=O)(=O)c1cc(F)c(Oc2cc(Br)cc(C(F)(F)F)c2)cc1F : 2.68
4) O=C(NCc1cc(F)c(Oc2ccccc2)cc1F)[C@@H]1CCCN1 : 3.13
5) COc1cc(Oc2cc(F)c(S(=O)(=O)Nc3ncns3)cc2F)cc(C(F)(F)F)c1 : 2.27
6) O=S(=O)(Nc1ncns1)c1cc(F)c(Oc2cc(Br)cc(C(F)(F)F)c2)cc1F : 2.07
7) O=C(NCc1cc(F)c(Oc2cc(C(F)(F)F)cc(C(F)(F)F)c2)cc1F)c1ncns1 : 2.67
8) CN(C)C(=O)c1cc(Oc2cc(F)c(S(=O)(=O)Nc3ncns3)cc2F)cc(C(F)(F)F)c1 : 3.20
9) O=C(NCc1cccc(-c2cc(C(F)(F)F)cc(C(F)(F)F)c2)c1)C1CCCC1 : 2.24
10) O=C(NCc1cc(F)c(Oc2cc(C(F)(F)F)cc(C(F)(F)F)c2)cc1F)c1nncs1 : 3.14
11) NC(=O)c1cc(Oc2cc(F)c(S(=O)(=O)Nc3ncns3)cc2F)cc(C(F)(F)F)c1 : 3.59
12) O=C(NCc1cccc(-c2cc(C(F)(F)F)cc(C(F)(F)F)c2)c1)C1CC[C@@H](O)C1 (stereo partly shown) : 3.20

---

Recorded measurements of IC50, one per entry
# measured on: human Nav1.5 (hNav1.5) (Homo sapiens)
# Construct: expressed in transfected cells
# test: hNav1.5 slow inactivation block, manual patchclamp
# Assay type: cell-based
# cond: HEK 293F cells stably expressing hNav1.5
measured quantity: IC50

1. O=S(=O)(Nc1ncns1)c1cc(F)c(Oc2cc(Br)cc(C(F)(F)F)c2)cc1F : ~4010 nM
2. O=C(NCc1cc(F)c(Oc2cc(C(F)(F)F)cc(C(F)(F)F)c2)cc1F)c1ncns1 : ~2500 nM
3. O=S(=O)(Nc1ncns1)c1cc(F)c(Oc2cc(Cl)cc(C(F)(F)F)c2)cc1F : ~4960 nM
